compounds and their reported GI50
Tested on: NCI-H226
Assay method text: NCI tumour cell line growth inhibition, 48 h
Calls of active or inactive are those of the source. Rule as the data show it: active = GI50 up to about 1.1 µM and inactive = higher.

Known results for compounds:
[
  {
    "Compound": "COc1cccc(NC(=O)C(C#N)=C(SC)SC)c1",
    "GI50": "> 100 µM (inactive)"
  },
  {
    "Compound": "N#Cc1c(-c2ccc([N+](=O)[O-])cc2)c(C#N)c(=O)n(NS(=O)(=O)c2ccccc2)c1S",
    "GI50": "65 µM (inactive)"
  }
]

Turning to the following compound.
Dear colleague, I am looking for the recorded GI50 of the following compound: O=C(O)CC1C(=O)OC2C3COC(=O)c4cc(O)c(O)c(O)c4-c4c(cc(O)c(O)c4O)C(=O)OC2C(OC(=O)c2cc(O)c(O)c4c2C1C(O)C(=O)O4)C(OC(=O)c1cc(O)c(O)c(O)c1)O3 (stereo not drawn) 30.4 µM (inactive)

* * *

System: RXF 393
Assay method text: NCI tumour cell line growth inhibition, 48 h
Activity calls are given as the source filed them. Rule as the data show it: active = GI50 up to about 1.1 µM and inactive = higher.
Reported metric: GI50

Known results for compounds:
[
  {
    "Compound": "O=[N+]([O-])c1ccc(-n2nc3ccc4c(no[n+]4[O-])c3[n+]2[O-])c([N+](=O)[O-])c1",
    "Value reported": "3.27 µM (inactive)"
  },
  {
    "Compound": "Cc1cc(NS(=O)(=O)c2ccc(NC(=O)c3cccc4c(Nc5ccc(S(=O)(=O)N=C(N)N)cc5)c5ccccc5nc34)cc2)no1",
    "Value reported": "> 100 µM (inactive)"
  },
  {
    "Compound": "O=c1cc(-c2nc3ccccc3[nH]2)[nH]c2nc(-c3nc4ccccc4[nH]3)cc(-c3ccc(Cl)cc3)c12",
    "Value reported": "14.5 µM (inactive)"
  },
  {
    "Compound": "c1cncc(C2(c3cc4ccccc4[nH]3)COCO2)c1 (stereo not drawn)",
    "Value reported": "> 100 µM (inactive)"
  },
  {
    "Compound": "N#Cc1nc(CCC(C(=O)O)N2C(=O)c3ccccc3C2=O)oc1N (stereo not drawn)",
    "Value reported": "> 100 µM (inactive)"
  }
]

Dear colleague, I am looking for the recorded GI50 of the following compound: COc1ccc(C2=NN(C(=N)S)C(c3ccccc3)C2)cc1 (stereo not drawn) 24.4 µM (inactive)

Same for C#CCN(N=O)C(=O)ON1C(=O)CCC1=O > 100 µM (inactive)

Same for O=c1c(C(c2ccccn2)c2c(O)oc3cc(O)ccc3c2=O)c(O)oc2cc(O)ccc12 > 100 µM (inactive)

* * *

System: SK-OV-3
Assay method text: NCI tumour cell line growth inhibition, 48 h
The source made the active and inactive calls. No stated cut-off is given here; in the data, active = GI50 up to about 1.1 µM and inactive = higher.
Reported metric: GI50

Known results for compounds:
[
  {
    "Compound": "Cc1nc2cc(Nc3ccccc3C(=O)O)ccc2s1",
    "Target desc": "SK-OV-3",
    "GI50": "> 100 µM (inactive)"
  },
  {
    "Compound": "CO/C(=N\\N=C\\c1ccc(Cl)c(Cl)c1)c1ccncc1",
    "Target desc": "SK-OV-3",
    "GI50": "> 10 µM (inactive)"
  },
  {
    "Compound": "Nc1ccccc1SC(/C=C/NNC1=NN=C(c2ccccc2)C(c2ccccc2)N1)c1ccccc1 (stereo unspecified)",
    "Target desc": "SK-OV-3",
    "GI50": "29.6 µM (inactive)"
  }
]

Dear colleague, I am looking for the recorded GI50 of the following compound: CC(C)(C)CC(C)(C)N/C(N)=N/O 24.1 µM (inactive)

Same for Cc1ccccc1C(C#N)C(=O)C(=O)Nc1nc([N+](=O)[O-])cs1 (stereo unspecified) > 100 µM (inactive)

* * *

Test system: SNB-19
Assay method text: NCI tumour cell line growth inhibition, 48 h
The source made the active and inactive calls. Cut-off read from the data, not from the text of the source: active = GI50 up to about 1.1 µM and inactive = higher.
Your reply should match one of these outcome classes. T for active, F for inactive

Known results for molecules:
[
  {
    "Molecule": "O=C(c1ccccc1)C(c1ccccc1)C1(O)C(=O)Nc2ccc(Br)cc21 (stereo not given)",
    "Classification": "F"
  },
  {
    "Molecule": "CC(C)CNC(=O)c1c(NC(=O)c2ccccc2)sc2[nH]c(=O)n(-c3ccccc3)c(=O)c12",
    "Classification": "F"
  },
  {
    "Molecule": "CC1=NC(C)(COC(=O)C2(C)NC(C)(CO)CO2)COC1=O (stereo not given)",
    "Classification": "F"
  }
]

Give the logged outcome of this assay for the following molecule: Cc1ccc2nc(NC(=O)C(=O)C3C(=O)NC(=S)NC3=O)sc2c1 F

Same for COc1cc(C(O)c2ccc3c(c2)OCO3)cc(OC)c1OC (stereo not given) F

Same for Sc1nnc(CNc2ccc(-c3nnc(S)n3-c3ccc(Cl)cc3)cc2)n1-c1ccc(Cl)cc1 F

Same for CCc1ccccc1NC(=O)CCc1nnc(S)[nH]1 F

Same for COc1ccc2c(c1)[C@@H](NC(C)=O)CCc1cc(OC)c(OC)c(OC)c1-2 T

Same for Cc1ccccc1C(C#N)C(=O)C(=O)Nc1nc([N+](=O)[O-])cs1 (stereo not given) F

Same for O=C(NCc1ccccc1)c1cc2cc(O)c(O)cc2cn1 F

* * *

System: MDA-MB-231
Assay method text: NCI tumour cell line growth inhibition, 48 h
Activity calls are given as the source filed them. No stated cut-off is given here; in the data, active = GI50 up to about 1.1 µM and inactive = higher.
molecules and their reported GI50

[
  {
    "Molecule": "O=c1[nH]nc(N/N=C\\c2ccc(Cl)cc2)c2ccccc12",
    "Target desc": "MDA-MB-231",
    "Reported metric": "GI50",
    "Value reported": "22.3 µM (inactive)"
  }
]

Dear colleague, I am looking for the recorded GI50 of the following molecule: Cc1ccc(S(=O)(=O)Oc2coc(CO)cc2=O)cc1 18.6 µM (inactive)

Same for O=C(CCc1ccc(O)c(O)c1)NCCc1cc(OCc2ccccc2)cc(OCc2ccccc2)c1 16.6 µM (inactive)

Same for COc1ccc2[nH]c(C(=O)N3CC(CCl)c4ccc([N+](=O)[O-])cc43)cc2c1 (configuration not stated) > 23.4 µM (inactive)

Same for Cc1cc(O)c2c(=O)c3ccccc3[nH]c2c1 32.4 µM (inactive)

Same for NC(=O)/C=c1/c2ccccc2n2nc3ccccc3c12 2.76 µM (inactive)

* * *

molecules and their reported GI50
Test system: SK-MEL-28
Assay method text: NCI tumour cell line growth inhibition, 48 h
The source made the active and inactive calls. No stated cut-off is given here; in the data, active = GI50 up to about 1.1 µM and inactive = higher.

Known results for molecules:
[
  {
    "Molecule": "CC(=O)CC(=O)Nc1ccccc1C(F)(F)F",
    "Target desc": "SK-MEL-28",
    "Value reported": "> 100 µM (inactive)"
  },
  {
    "Molecule": "Cc1ccc(Nc2nc(=O)c3c([nH]c4ccccc43)s2)cc1",
    "Target desc": "SK-MEL-28",
    "Value reported": "21.2 µM (inactive)"
  },
  {
    "Molecule": "COc1ccc2[nH]c(C(=O)N3CC(CCl)c4ccc([N+](=O)[O-])cc43)cc2c1 (stereo not given)",
    "Target desc": "SK-MEL-28",
    "Value reported": "> 100 µM (inactive)"
  }
]

Dear colleague, I am looking for the recorded GI50 of the following molecule: CCc1c(Cc2cccc3ccccc23)n2c(nc1=O)SCC2OCCO (stereo not given) > 100 µM (inactive)

Same for CC(C)C1=CC23CCC4C(C)(C(=O)O)CCCC4(C)C2CC1C1C(=O)N(c2ccccc2)C(=O)C13 (stereo not given) 53.2 µM (inactive)

Same for COc1cc2c(cc1Cc1c(F)cccc1Cl)nc(-c1c(F)cccc1Cl)n2Cc1c(F)cccc1Cl 65.6 µM (inactive)

Same for CCCN(CCC)CCc1ccc(OC2=CCN(C)CC2)cc1 35.3 µM (inactive)

* * *

Tested on: SK-MEL-28
Assay method text: NCI tumour cell line growth inhibition, 48 h
Active and inactive are the calls of the source. Rule as the data show it: active = GI50 up to about 1.1 µM and inactive = higher.
compounds and their reported GI50

Known results for compounds:
[
  {
    "Given smiles": "CCOC(=O)/C(=C\\c1ccc(CO)o1)P(=O)(OCC)OCC",
    "Reported metric": "GI50",
    "Value reported": "30.7 µM (inactive)"
  },
  {
    "Given smiles": "CCOC(=O)CCc1c(C)c2ccc(O)cc2oc1=O",
    "Reported metric": "GI50",
    "Value reported": "> 100 µM (inactive)"
  },
  {
    "Given smiles": "CCN(CC)CCC(=O)c1ccc(Oc2ccc(C)cc2)cc1",
    "Reported metric": "GI50",
    "Value reported": "16.9 µM (inactive)"
  },
  {
    "Given smiles": "Cc1ccc(C(=O)/C=C2/Nc3ccc([N+](=O)[O-])cc3N/C2=C/C(=O)c2ccc(C)cc2)cc1",
    "Reported metric": "GI50",
    "Value reported": "> 100 µM (inactive)"
  },
  {
    "Given smiles": "Brc1c(C#CCC2CCCCC2)ccc(C#CCC2CCCCC2)c1Br",
    "Reported metric": "GI50",
    "Value reported": "> 100 µM (inactive)"
  }
]

Turning to the following compound.
Dear colleague, I am looking for the recorded GI50 of the following compound: CCN(CC)C(=O)c1c(N2CCOCC2)cc(N(CC)CC)oc1=O > 100 µM (inactive)
